Hello, the source for this data is PubChem BioAssay, in case you need it.

Molecular target: Cell division control protein 42 homolog (Homo sapiens)
Assay: inhibition of fluorescent GTP binding to wildtype Cdc42 – biochemical, multiplex bead flow cytometry, Bodipy-FL-GTP, dose response (AID 1334)
Details: bead-based flow cytometry, Bodipy-FL-GTP binding to GST-Cdc42; at 100 µM (top of the series) unless noted
Measured potencies and affinities stand elsewhere.
// fluorescence, percent of control (lower = inhibition) lookup, one value per entry
outcome.measure: fluorescence, percent of control (lower = inhibition)

molecular.string: COc1cc(/C=N/Nc2nnc3c(n2)[nH]c2ccccc23)ccc1O
result: 33.9%

molecular.string: CC(C)c1nc2oc3c(=O)[nH]cnc3c2c2c1CCC2
result: 80%

molecular.string: COc1ccc(C)cc1NC(=O)COC(C)=O
result: 94.8%

molecular.string: Cc1[nH]c2ccccc2c1/C=C/C(=O)c1ccccc1
result: 68.9%

molecular.string: CN(C)S(=O)(=O)c1ccc(C(=O)NNc2nc(-c3ccccc3)c3cc(Br)ccc3n2)cc1
result: 31.2%

molecular.string: Cc1ccc(-c2csc3nc4c5ccccc5c(NCCCN(C)C)nn4c(=O)c23)cc1
result: 61.7%

====

Target: Beta-adrenergic receptor kinase 1 (Homo sapiens) (UniProt P25098)
Sequence (P25098 whole entry, looked up): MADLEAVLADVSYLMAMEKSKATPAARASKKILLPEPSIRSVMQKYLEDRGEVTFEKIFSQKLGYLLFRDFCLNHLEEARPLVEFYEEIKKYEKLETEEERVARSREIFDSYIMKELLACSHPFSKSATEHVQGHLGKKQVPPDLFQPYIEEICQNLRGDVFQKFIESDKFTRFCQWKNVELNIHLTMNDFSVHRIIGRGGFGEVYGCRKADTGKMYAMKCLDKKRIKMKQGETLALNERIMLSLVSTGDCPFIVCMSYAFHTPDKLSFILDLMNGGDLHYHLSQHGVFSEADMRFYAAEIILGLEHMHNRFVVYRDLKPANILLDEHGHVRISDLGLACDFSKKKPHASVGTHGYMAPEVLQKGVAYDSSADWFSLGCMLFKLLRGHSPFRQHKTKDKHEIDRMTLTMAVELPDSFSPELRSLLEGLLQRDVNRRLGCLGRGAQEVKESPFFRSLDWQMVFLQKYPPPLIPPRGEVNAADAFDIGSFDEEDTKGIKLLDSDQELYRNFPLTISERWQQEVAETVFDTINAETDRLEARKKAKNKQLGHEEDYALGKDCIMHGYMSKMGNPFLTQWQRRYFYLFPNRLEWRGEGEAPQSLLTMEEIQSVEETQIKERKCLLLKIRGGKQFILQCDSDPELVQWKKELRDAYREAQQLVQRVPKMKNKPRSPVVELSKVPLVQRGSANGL
Experiment: GRK2 binders displacing RNA aptamer, biochemical, validation, human GRK2, bead flow cytometry (AID 488806)
Details: bead-bound GRK2, FAM-aptamer displacement, at 10 µM, stronger effect = higher value
The source made the active and inactive calls.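 Rule for the calls: active = aptamer binding inhibition above 30%, about 3 SD of noise from non-fluorescent compounds; inactive = inhibition at or below 30%.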

compound: CCCC(=O)Nc1ncnc2c1ncn2[C@@H]1O[C@@H]2COP(=O)(O)O[C@H]2[C@H]1OC(=O)CCC
assay.system: Beta-adrenergic receptor kinase 1 (Homo sapiens) (UniProt P25098)
aptamer binding inhibition: 3% (inactive)
//
compound: COc1ccc2c(CC(=O)NCC3CCC(C(=O)O)CC3)cc(=O)oc2c1 (stereo not drawn)
assay.system: Beta-adrenergic receptor kinase 1 (Homo sapiens) (UniProt P25098)
aptamer binding inhibition: -2% (inactive)
//
compound: CCOC(=O)C(=O)N1CCN(c2ccccc2OC)CC1
assay.system: Beta-adrenergic receptor kinase 1 (Homo sapiens) (UniProt P25098)
aptamer binding inhibition: 3% (inactive)
//
compound: CC(=O)OC(C)C[N+](C)(C)C (stereo not drawn)
assay.system: Beta-adrenergic receptor kinase 1 (Homo sapiens) (UniProt P25098)
aptamer binding inhibition: 5% (inactive)
//
compound: CCn1ccnc1CN(C)Cc1cn(-c2cccc(C)c2)nc1-c1cccc(F)c1
assay.system: Beta-adrenergic receptor kinase 1 (Homo sapiens) (UniProt P25098)
aptamer binding inhibition: 4% (inactive)
//
compound: CC(C)N(Cc1nccn1C)C(=O)CC1C(=O)NCCN1Cc1ccccc1C(F)(F)F (stereo not drawn)
assay.system: Beta-adrenergic receptor kinase 1 (Homo sapiens) (UniProt P25098)
aptamer binding inhibition: -2% (inactive)
//
compound: Cc1c(O)c(=O)ccn1C
assay.system: Beta-adrenergic receptor kinase 1 (Homo sapiens) (UniProt P25098)
aptamer binding inhibition: 1% (inactive)
//
compound: O=C(NCCc1ccccc1)C1CCN(C2CCN(Cc3ccco3)CC2)CC1
assay.system: Beta-adrenergic receptor kinase 1 (Homo sapiens) (UniProt P25098)
aptamer binding inhibition: -13% (inactive)
//
compound: COc1cc(/C=C/C(=O)O)cc(S(=O)(=O)NCCCO)c1OC
assay.system: Beta-adrenergic receptor kinase 1 (Homo sapiens) (UniProt P25098)
aptamer binding inhibition: 5% (inactive)
//
compound: COc1ccc(C2NC(=O)c3ccccc3O2)c(OC)c1OC (stereo not drawn)
assay.system: Beta-adrenergic receptor kinase 1 (Homo sapiens) (UniProt P25098)
aptamer binding inhibition: 5% (inactive)
//
compound: Oc1ccccc1OCCOc1ccccc1OCCOc1ccccc1O
assay.system: Beta-adrenergic receptor kinase 1 (Homo sapiens) (UniProt P25098)
aptamer binding inhibition: -2% (inactive)
//
compound: CCCN1CCC(NC(=O)Nc2ccc(Br)cc2)CC1
assay.system: Beta-adrenergic receptor kinase 1 (Homo sapiens) (UniProt P25098)
aptamer binding inhibition: -5% (inactive)
//
compound: NC(N)=N/N=C/c1ccc(OS(=O)(=O)c2ccccc2)cc1
assay.system: Beta-adrenergic receptor kinase 1 (Homo sapiens) (UniProt P25098)
aptamer binding inhibition: -12% (inactive)
//
compound: COc1cc(-c2nnc(-c3cccs3)o2)cc(OC)c1OC
assay.system: Beta-adrenergic receptor kinase 1 (Homo sapiens) (UniProt P25098)
aptamer binding inhibition: 3% (inactive)
//
compound: COc1ccc(-c2cc(=Nc3ccc(C)cc3)c3ccccc3o2)cc1
assay.system: Beta-adrenergic receptor kinase 1 (Homo sapiens) (UniProt P25098)
aptamer binding inhibition: 0% (inactive)
//
compound: COc1ccc(-c2nc(NC(C)=O)sc2-c2ccc(OC)cc2)cc1
assay.system: Beta-adrenergic receptor kinase 1 (Homo sapiens) (UniProt P25098)
aptamer binding inhibition: 2% (inactive)
//
compound: COc1ccc(C(=O)CCN2CCc3cc(OC)c(OC)cc3C2)cc1
assay.system: Beta-adrenergic receptor kinase 1 (Homo sapiens) (UniProt P25098)
aptamer binding inhibition: 2% (inactive)
//
compound: CC(C)(C)OC(=O)NCCC(=O)Oc1ccc2ccc(=O)oc2c1
assay.system: Beta-adrenergic receptor kinase 1 (Homo sapiens) (UniProt P25098)
aptamer binding inhibition: 4% (inactive)
//
compound: Cc1ccc2occ(C(=O)c3ccco3)c(=O)c2c1
assay.system: Beta-adrenergic receptor kinase 1 (Homo sapiens) (UniProt P25098)
aptamer binding inhibition: 2% (inactive)
//
compound: O=c1[nH]c(=O)n(C2CCCO2)cc1F (stereo not drawn)
assay.system: Beta-adrenergic receptor kinase 1 (Homo sapiens) (UniProt P25098)
aptamer binding inhibition: 7% (inactive)
//
compound: CCC(C)n1ncn(-c2ccc(N3CCN(c4ccc(OCC5COC(Cn6cncn6)(c6ccc(Cl)cc6Cl)O5)cc4)CC3)cc2)c1=O (stereo not drawn)
assay.system: Beta-adrenergic receptor kinase 1 (Homo sapiens) (UniProt P25098)
aptamer binding inhibition: 4% (inactive)
//
compound: COC(=O)C1[C@H]2C(=O)N(Cc3cccs3)C[C@]23C=C[C@H]1O3 (stereo partly drawn)
assay.system: Beta-adrenergic receptor kinase 1 (Homo sapiens) (UniProt P25098)
aptamer binding inhibition: 2% (inactive)
//
compound: Cc1c2c(nc3c(C)cccc13)OC(C)C2 (stereo not drawn)
assay.system: Beta-adrenergic receptor kinase 1 (Homo sapiens) (UniProt P25098)
aptamer binding inhibition: -2% (inactive)
//
compound: COc1ccc(NC(=O)Nc2ccc(C(C)C)cc2)cc1
assay.system: Beta-adrenergic receptor kinase 1 (Homo sapiens) (UniProt P25098)
aptamer binding inhibition: 7% (inactive)
//
compound: CCOC(=O)C1=C(C)N[C@@]2(O)c3ccccc3C(=O)[C@@]12O
assay.system: Beta-adrenergic receptor kinase 1 (Homo sapiens) (UniProt P25098)
aptamer binding inhibition: 1% (inactive)
//
compound: O=[N+]([O-])c1ccc(O)c2ncccc12
assay.system: Beta-adrenergic receptor kinase 1 (Homo sapiens) (UniProt P25098)
aptamer binding inhibition: 0% (inactive)
//
compound: CC(C)(S)[C@@H](N)C(=O)O
assay.system: Beta-adrenergic receptor kinase 1 (Homo sapiens) (UniProt P25098)
aptamer binding inhibition: 6% (inactive)
//
compound: Nc1nc(Cl)nc2c1ncn2[C@@H]1O[C@H](CO)[C@@H](O)[C@H]1O
assay.system: Beta-adrenergic receptor kinase 1 (Homo sapiens) (UniProt P25098)
aptamer binding inhibition: 6% (inactive)
//
compound: CC(C)CCn1c(N2CCc3ccccc3C2)nc2c1c(=O)[nH]c(=O)n2C
assay.system: Beta-adrenergic receptor kinase 1 (Homo sapiens) (UniProt P25098)
aptamer binding inhibition: -2% (inactive)
//
compound: COc1ccccc1Oc1c(C)oc2c(CN3CCN(CCO)CC3)c(O)ccc2c1=O
assay.system: Beta-adrenergic receptor kinase 1 (Homo sapiens) (UniProt P25098)
aptamer binding inhibition: -1% (inactive)
//
compound: COc1cc(CNc2ccc(C)c(C)c2)cc(OC)c1OC
assay.system: Beta-adrenergic receptor kinase 1 (Homo sapiens) (UniProt P25098)
aptamer binding inhibition: 0% (inactive)
//
compound: COc1cc(C=NCC2OCCc3ccccc32)cc(OC)c1 (stereo not drawn)
assay.system: Beta-adrenergic receptor kinase 1 (Homo sapiens) (UniProt P25098)
aptamer binding inhibition: 4% (inactive)
//
compound: O=C1ON=C(c2ccc(Cl)cc2)/C1=C/c1ccc(O)cc1
assay.system: Beta-adrenergic receptor kinase 1 (Homo sapiens) (UniProt P25098)
aptamer binding inhibition: 4% (inactive)
//
compound: O=C(/C=C/Sc1ccccc1)c1ccccc1
assay.system: Beta-adrenergic receptor kinase 1 (Homo sapiens) (UniProt P25098)
aptamer binding inhibition: -1% (inactive)
//
compound: COc1ccc(C(=O)c2oc3ccc(Br)cc3c2NC(C)=O)cc1
assay.system: Beta-adrenergic receptor kinase 1 (Homo sapiens) (UniProt P25098)
aptamer binding inhibition: 1% (inactive)
//
compound: CC(C)CC1c2[nH]c3ccccc3c2CCN1C(=O)CCC(=O)N(C)C (stereo not drawn)
assay.system: Beta-adrenergic receptor kinase 1 (Homo sapiens) (UniProt P25098)
aptamer binding inhibition: 4% (inactive)
//
compound: O=C(NCC1CCCO1)c1ccc(OC2CCN(C(=O)C3CC3)CC2)cc1 (stereo not drawn)
assay.system: Beta-adrenergic receptor kinase 1 (Homo sapiens) (UniProt P25098)
aptamer binding inhibition: 2% (inactive)
//
compound: COc1ccc2c3c([nH]c2c1)C1(NCC3)C(=O)Nc2ccccc21 (stereo not drawn)
assay.system: Beta-adrenergic receptor kinase 1 (Homo sapiens) (UniProt P25098)
aptamer binding inhibition: 0% (inactive)
